# Target System: T1, sIL-6R (soluble IL-6 receptor; SBH Sciences) (human, UniProt P08887 20-365)
# T1 construct: also called human IL-6R
# T1 sequence: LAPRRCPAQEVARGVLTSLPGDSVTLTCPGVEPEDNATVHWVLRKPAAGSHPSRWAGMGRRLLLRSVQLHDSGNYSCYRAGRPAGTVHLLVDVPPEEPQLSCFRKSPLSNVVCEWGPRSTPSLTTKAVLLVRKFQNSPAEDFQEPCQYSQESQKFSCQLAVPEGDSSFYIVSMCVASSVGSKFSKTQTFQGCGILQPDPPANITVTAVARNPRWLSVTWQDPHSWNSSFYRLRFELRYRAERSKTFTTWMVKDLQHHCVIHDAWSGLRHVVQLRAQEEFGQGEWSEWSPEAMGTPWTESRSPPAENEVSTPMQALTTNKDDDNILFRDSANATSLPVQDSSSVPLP
# Assay Info: SPR (BIAcore 3000), antibody on chip, sIL-6R analyte, 25 C
# Protocol: All SPR measurements were performed on a BIAcore 3000 instrument (GE Biosciences, Piscataway, N.J.). BIAcore Software-BIAcore 3000 Control Software V3.2 was used for the operation and control of the BIAcore 3000 instrument. […] Data was analyzed by using the Kinetics Wizard and the manual fitting programs that are both included with the BiaEvaluation Software V4.1.
Listing of entries alongside the reported koff.
Quick note: give the figure in s⁻¹, leave out the unit.

Example results:
Binder	Recorded Result
28# (antibody, human IgG1, kappa, V domains shown, also called Sample # 28) VH: QVQLQESGPGLVRPSQTLSLTCTVSGYSITSDHAWSWVRQPPGRGLEWIGFISYSGMTTYNPSLKSRVTMLRDTSKNQFSLRLSSVTAADTAVYYCARSLARTTAMDYWGQGSLVTVSS VL: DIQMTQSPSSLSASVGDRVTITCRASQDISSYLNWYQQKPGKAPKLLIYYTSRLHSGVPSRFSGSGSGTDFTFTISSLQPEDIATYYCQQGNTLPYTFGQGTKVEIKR	7.61e-05
3# (antibody, human IgG1, kappa, V domains shown, also called Sample # 3) VH: QVQLQESGPGLVRPSQTLSLTCTVSGYSITSDHAWSWVRQPPGRGLEWIGYISYSGITTYNPSLKSRVTMLRDTSKNQFSLRLSSVTAADTAVYYCARSLARATAMDYWGQGSLVTVSS VL: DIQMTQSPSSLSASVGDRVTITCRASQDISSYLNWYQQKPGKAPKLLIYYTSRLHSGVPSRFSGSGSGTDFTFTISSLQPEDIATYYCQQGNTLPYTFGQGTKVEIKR	5.8e-05

Switching to the query record.
Input: Name the reported koff value associated with the binder 31# (antibody, human IgG1, kappa, V domains shown, also called Sample # 31) VH: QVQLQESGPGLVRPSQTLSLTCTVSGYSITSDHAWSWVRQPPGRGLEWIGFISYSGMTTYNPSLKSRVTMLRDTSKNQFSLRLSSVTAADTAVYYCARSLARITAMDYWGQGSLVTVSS VL: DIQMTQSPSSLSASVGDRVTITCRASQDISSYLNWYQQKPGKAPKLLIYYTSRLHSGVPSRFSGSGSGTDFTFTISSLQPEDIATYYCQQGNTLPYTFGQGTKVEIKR
Output: 2.92e-05
